Target: RCL (Rattus norvegicus, UniProt O35820)
Construct: made in house; host or cells: E. coli Bli5 (BL21 (DE3) pDIA17); pET24dRcl (untagged) or pET28aRcl (His-tagged)
Assay: Compounds tested as substrate or inhibitor of RCL enzyme activity (dGMP hydrolysis)
Format: biochemical
Conditions: versus dGMP as substrate
Protocol: The enzyme activity was determined either spectrophotometrically by following one of the reaction products, […] or deoxyribose 5-phosphate, or by HPLC separation and UV detection of the released nucleobase and the remaining substrate. […]
parameter measured: substrate or inhibitor of the enzyme activity

{"item smiles": "CSc1nc(N)nc2c1ncn2[C@@H]1O[C@H](COP(=O)(O)O)[C@@H](O)[C@H]1O", "test value": "competitive inhibitors"}
{"item smiles": "Nc1nc2c(ncn2[C@@H]2O[C@H](COP(=O)(O)O)[C@@H](O)[C@H]2O)c(=O)[nH]1", "test value": "competitive inhibitors"}

----------
# kcat listing for each entry below
Target: His-RCL (deoxynucleoside 5′-monophosphate N-glycosidase) (Rattus norvegicus, UniProt O35820)
Construct: made in house; host or cells: E. coli Bli5 (BL21 (DE3) pDIA17), plasmid pET28aRcl
Sequence (O35820 1-163): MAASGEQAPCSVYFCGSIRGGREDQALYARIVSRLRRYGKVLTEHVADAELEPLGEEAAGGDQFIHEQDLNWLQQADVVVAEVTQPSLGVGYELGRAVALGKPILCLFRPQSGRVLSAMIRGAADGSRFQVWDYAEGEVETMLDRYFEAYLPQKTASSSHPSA
Experiment: Kinetic parameters of His-RCL (wild-type) with dNMP substrates, initial velocity measurements
Type: biochemical
Conditions: Table 1; substrate of His-RCL; five concentrations

{"molecule": "O=c1ccn([C@H]2C[C@H](O)[C@@H](COP(=O)(O)O)O2)c(=O)[nH]1 [dUMP]", "unit of measure": "s⁻¹", "kcat": 0.158}
{"molecule": "Nc1ncnc2c1ncn2[C@H]1C[C@H](O)[C@@H](COP(=O)(O)O)O1 [dAMP]", "unit of measure": "s⁻¹", "kcat": 0.0066}
{"molecule": "Nc1nc2c(ncn2[C@H]2C[C@H](O)[C@@H](COP(=O)(O)O)O2)c(=O)[nH]1 [dGMP]", "unit of measure": "s⁻¹", "kcat": 0.0297}
{"molecule": "Nc1ccn([C@H]2C[C@H](O)[C@@H](COP(=O)(O)O)O2)c(=O)n1 [dCMP]", "unit of measure": "s⁻¹", "kcat": 0.0231}

----------
target: His-RCL (deoxynucleoside 5′-monophosphate N-glycosidase) (Rattus norvegicus, UniProt O35820); construct: made in house; host or cells: E. coli Bli5 (BL21 (DE3) pDIA17), plasmid pET28aRcl; assay: Kinetic parameters of His-RCL (wild-type) with dNMP substrates, initial velocity measurements; format: biochemical; settings: Table 3; additional substrates of His-RCL; in 1/s

{"item smiles": "COc1nc(N)nc2c1ncn2[C@H]1C[C@H](O)[C@@H](COP(=O)(O)O)O1", "kcat": 0.033}
{"item smiles": "CCNc1nc2c(ncn2[C@H]2C[C@H](O)[C@@H](COP(=O)(O)O)O2)c(=O)[nH]1", "kcat": 0.0528}
{"item smiles": "Nc1nc2c(ncn2[C@H]2C[C@H](O)[C@@H](COP(=O)(O)O)O2)c(=O)[nH]1", "kcat": 0.033}
{"item smiles": "C[n+]1cn([C@H]2C[C@H](O)[C@@H](COP(=O)(O)O)O2)c2nc(N)[nH]c(=O)c21", "kcat": 2.376}
